Recorded measurements of GI50, one per entry
EXPERIMENTAL_TARGET: ABL P210WT BAF3 cells (Homo sapiens)
Construct: ABL P210WT BAF3; fused on or other part: P11274 (Breakpoint cluster region protein)
Sequence (P00519 whole entry, change not shown, the tested form may be a part): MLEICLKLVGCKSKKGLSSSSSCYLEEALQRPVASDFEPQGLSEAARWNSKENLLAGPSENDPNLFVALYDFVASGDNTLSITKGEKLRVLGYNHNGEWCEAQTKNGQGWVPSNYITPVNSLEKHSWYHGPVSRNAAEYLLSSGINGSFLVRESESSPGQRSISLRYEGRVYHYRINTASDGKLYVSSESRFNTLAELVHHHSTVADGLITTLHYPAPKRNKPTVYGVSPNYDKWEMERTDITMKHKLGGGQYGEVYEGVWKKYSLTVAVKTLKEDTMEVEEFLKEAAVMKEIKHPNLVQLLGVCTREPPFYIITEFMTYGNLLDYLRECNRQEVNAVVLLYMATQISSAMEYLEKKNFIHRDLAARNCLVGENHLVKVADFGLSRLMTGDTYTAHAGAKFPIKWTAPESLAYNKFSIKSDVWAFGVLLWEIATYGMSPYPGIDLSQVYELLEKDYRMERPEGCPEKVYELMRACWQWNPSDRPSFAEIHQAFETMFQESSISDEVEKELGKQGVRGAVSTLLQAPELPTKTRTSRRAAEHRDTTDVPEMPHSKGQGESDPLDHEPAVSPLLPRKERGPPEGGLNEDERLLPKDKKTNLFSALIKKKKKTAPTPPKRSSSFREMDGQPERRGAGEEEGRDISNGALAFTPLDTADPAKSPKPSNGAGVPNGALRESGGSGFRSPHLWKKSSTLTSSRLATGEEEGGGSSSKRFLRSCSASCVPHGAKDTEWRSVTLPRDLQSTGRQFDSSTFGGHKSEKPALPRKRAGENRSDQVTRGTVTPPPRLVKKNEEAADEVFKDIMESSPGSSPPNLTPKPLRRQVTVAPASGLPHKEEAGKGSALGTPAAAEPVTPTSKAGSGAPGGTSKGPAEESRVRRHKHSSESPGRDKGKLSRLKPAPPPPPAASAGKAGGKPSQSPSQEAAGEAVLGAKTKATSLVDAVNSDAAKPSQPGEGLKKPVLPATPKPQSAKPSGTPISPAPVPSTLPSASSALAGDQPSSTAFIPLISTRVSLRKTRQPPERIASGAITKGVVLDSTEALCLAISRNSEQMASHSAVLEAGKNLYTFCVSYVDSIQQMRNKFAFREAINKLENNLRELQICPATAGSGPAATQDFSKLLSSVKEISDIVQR
EXPERIMENTAL_PROTOCOL: 96-well XTT cell survival assay, BaF3 ABL P210WT
Assay type: cell-based
ASSAY_SETUP: ABL P210 WT, 72 hours, read-out: CELL BIO ABL P210WT BAF3 XTT (IC50)
Description: MV4-11 and THP cells were maintained in Iscove's Modified Dulbecco's Medium supplemented with 10% fetal bovine serum (FBS) and penicillin/streptomycin, Ba/F3 cells were maintained in RPMI 1640 supplemented with 10% FBS, penicillin/streptomycin and 5 ng/ml recombinant mouse IL-3. Compounds were tested in the following assays in duplicate. […]

Below: 2 compounds and their reported GI50.
CSc1ccccc1-c1c[nH]c2ncc(-c3cncc(C(=O)N(C)C)c3)c(Cl)c12 ... > 1000 nM
COc1ccccc1-c1c[nH]c2ncc(-c3cncc(C(O)C(=O)N(C)C)c3)c(Cl)c12 (stereo not shown) ... < 10 nM

Enquiry: Give the measured GI50 of Cn1nccc1C(O)c1cncc(-c2cnc3[nH]cc(-c4ccccc4F)c3c2Cl)c1 (stereo not shown) .
Return: > 1000 nM

Enquiry: What do you have for CN(C)C(=O)c1cncc(-c2cnc3[nH]cc(-c4ccccc4F)c3c2Cl)c1 ?
Return: 100 to 1000 nM

Enquiry: What do you have for CN(C)C(=O)C(O)c1cncc(-c2cnc3[nH]cc(-c4cccc(F)c4F)c3c2Cl)c1 (stereo not shown) ?
Return: 100 to 1000 nM

Enquiry: What do you have for CN(C)C(=O)c1cc(-c2cnc3[nH]cc(-c4ccc5c(c4)CC(=O)N5)c3c2Cl)cnc1N ?
Return: 100 to 1000 nM

Enquiry: What do you have for COc1ccccc1-c1c[nH]c2ncc(-c3cncc(C(O)C(=O)N(C)C)c3)c(C#N)c12 (stereo not shown) ?
Return: > 1000 nM

Hello, the source for this data is patent US8158647B2, in case you need it.
